Each recorded value in this set is attributed to patent US20230212266A1.

target: SARS-CoV-2 receptor binding domain (RBD) (SARS-CoV-2, UniProt P0DTC2 319-591); test: BLI; mAb loaded on anti-human Fc probe, dipped in antigen
REPORTED ENDPOINT: binding result

CV43 (antibody, V domains shown) VH: QVQLVESGGGVVQPGRSLRLSCAASGFTFSSYAMHWVRQAPGKGLEWVAVISYDGSNKYYADSVKGRFTISRDNSKNTLYLQMNSLRAEDTAVYYCARVTVVHFDYWGQGTLVTVSS VL: NFMLTQPHSVSESPGKTVTISCTGSSGSIASNYVQWYQQRPGSAPTTVIYEDNQRPSGVPDRFSGSIDSSSNSASLTISGLKTEDEADYYCQSYDSSNWVFGGGTKLTVL ... binds
CV2-71 (antibody, V domains shown) VH: EVQLLESGGGLGQPGGSLRLSCAASGFTFSNYAMSWVRQAPGKGLEWVSVISGSGGSTYYADSVKGRFTISRDNSKNTLYLQMNSLRAEDTAVYYCAKAGAVGYYDSNGYYYDVDYYYGMDVWGQGTTVTVSS VL: QSVLTQPPSVSGAPGQRVTISCTGSSSNIGAGYDVHWYQQLPGTAPKLLIYGNSNRPSGVPDRFSGSKSGTSASLAITGLQAEDEADYYCQSYDSSLSGYVFGTGTKVTVL ... binds
